Consider the following molecules; for each one, report its IC50.
Assayed target: CquiOBP5 (Culex quinquefasciatus, UniProt C7BDZ9)
Sequence (C7BDZ9 entry or part of it): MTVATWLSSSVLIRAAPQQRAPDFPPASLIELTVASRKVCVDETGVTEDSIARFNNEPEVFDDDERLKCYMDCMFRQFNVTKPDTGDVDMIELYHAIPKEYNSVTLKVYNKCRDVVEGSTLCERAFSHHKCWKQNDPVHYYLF
Protocol summary: biochemical
Assay type: binding
Test context: CquiOBP5; NPN displacement titration; read-out: IC50

The measured IC50 that C=CCc1ccc(O)c(OC)c1 showed for CquiOBP5 (Culex quinquefasciatus, UniProt C7BDZ9) is 10.7 µM

Per the reported CquiOBP5 (Culex quinquefasciatus, UniProt C7BDZ9) data, COc1ccccc1OC has IC50 of > 10 µM

Kindly note: CquiOBP5 (Culex quinquefasciatus, UniProt C7BDZ9), OCCc1ccccc1 , IC50 value reported: > 10 µM

Entry C#CC(O)CCCCC (stereo not shown) under CquiOBP5 (Culex quinquefasciatus, UniProt C7BDZ9) had IC50 of 12.8 µM

Form field IC50 for item CC/C=C\CCOC(C)=O [(Z)-3-Hexenyl acetate, (Z)-3-hexenyl acetate] on CquiOBP5 (Culex quinquefasciatus, UniProt C7BDZ9): > 10 µM

Fill in: CquiOBP5 (Culex quinquefasciatus, UniProt C7BDZ9) IC50 for CCc1ccc(O)cc1 = > 10 µM

CquiOBP5 (Culex quinquefasciatus, UniProt C7BDZ9) data for c1ccc2[nH]ccc2c1 ; its IC50: > 10 µM

For CC(=O)OC/C=C(\C)CCC=C(C)C [Geranyl acetate, geranyl acetate] on CquiOBP5 (Culex quinquefasciatus, UniProt C7BDZ9), measured IC50 was > 10 µM

# IC50 measured on CquiOBP5 (Culex quinquefasciatus, UniProt C7BDZ9) for item CCCCCCCCCC[C@H](OC(C)=O)[C@H]1CCCC(=O)O1 [MOP, (5R,6S)-6-acetoxy-5-hexadecanolide] = 10.3 µM

The observed IC50 for CCCCCC(O)CC (stereo not shown) when tested with CquiOBP5 (Culex quinquefasciatus, UniProt C7BDZ9) stands at > 10 µM

----------
Assayed target: CquiOBP5 (Culex quinquefasciatus)
Protocol summary: biochemical
Type: binding
Endpoint name: IC50

// IC50 lookup, compound = CCOC(=O)Cc1ccccc1 [Ethyl 2-phenylacetate, ethyl 2-phenylacetate] , result: > 10 µM

Kindly note the recorded IC50 for CC(C)[C@]12CC(=O)[C@H](C)[C@H]1C2 , which is > 10 µM

Value of IC50 reported for the compound CCC(C)OC(=O)N1CCCCC1CCO (centres unmarked) is 7.9 µM

Recorded IC50 (compound CC(=O)CCC=C(C)C ): > 10 µM

Lab note: measured IC50 of O=Cc1ccccc1 was > 10 µM

----------
Assayed target: CquiOBP2 (Culex quinquefasciatus, UniProt C7BDZ6)
Sequence (C7BDZ6 entry or part of it): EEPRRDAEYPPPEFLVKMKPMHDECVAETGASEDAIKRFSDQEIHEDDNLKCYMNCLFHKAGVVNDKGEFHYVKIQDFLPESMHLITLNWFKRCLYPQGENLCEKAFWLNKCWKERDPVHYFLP
Protocol summary: biochemical
Format: binding
Test context: CquiOBP2; calculated from IC50 of NPN displacement; read-out: Kd
Description: Binding affinity (Ban et al., [2002]) was tested with a panel of 34 compounds, including attractants, a mosquito oviposition pheromone, repellents, terpenoids and other putative mosquito attractants or repellents. […] Fluorescence spectra were recorded in a right angle configuration on a spectrofluorimeter (RF-5301, Shimadzu, Kyoto, Japan) at room temperature using a 1 cm light path fluorimeter quartz cuvette. […]
pKd: −log10 of the molar value.
Endpoint name: pKd

The value of pKd measured for the compound CCCCN(CCC(=O)OCC)C(C)=O [IR3535, ethyl 3-[acetyl(butyl)amino]propanoate] turned out to be < 5.60

Sure, the documented pKd for CCCCCC(O)CC (stereo not shown) is < 5.60

Per the records, this compound ( O=C1CCCCC1 ) has pKd equal to < 5.60

# compound COc1ccccc1OC ; its pKd = < 5.60

The compound identified as Cc1cc(C)cc(O)c1 registered its pKd at 5.72

Quick note, pKd for CCc1ccc(O)cc1 landed at < 5.60

In plain terms, CC1CCC(C(C)(C)O)C(O)C1 (stereo not shown) has a documented pKd of 5.89

In plain terms, CC12CCC(CC1=O)C2(C)C (stereo not shown) has a documented pKd of < 5.60

Please fill in: pKd reported for Cc1c[nH]c2ccccc12 = 5.85

For this compound ( Cc1ccc(O)cc1 ), measured pKd is < 5.60

----------
Assayed target: CquiOBP5 (Culex quinquefasciatus)
Protocol summary: biochemical
Assay type: binding
Test context: CquiOBP5; NPN displacement titration; read-out: IC50
Procedure: Binding affinity (Ban et al., [2002]) was tested with a panel of 34 compounds, including attractants, a mosquito oviposition pheromone, repellents, terpenoids and other putative mosquito attractants or repellents. […] Fluorescence spectra were recorded in a right angle configuration on a spectrofluorimeter (RF-5301, Shimadzu, Kyoto, Japan) at room temperature using a 1 cm light path fluorimeter quartz cuvette. […]
Endpoint name: IC50

GET /value?item= CC12CCC(CC1=O)C2(C)C (stereo not drawn) &field=IC50 returns > 10 µM

So, CC12CCC(C1)C(C)(C)C2=O (stereo not drawn) ? Its IC50 was > 10 µM

# IC50 (compound: C=CC1(C)CCC(C(C)(C)O)O1 (stereo not drawn) [Linalool oxide, linalool oxide] ) is > 10 µM

# IC50 (compound: CC(=O)c1ccccc1 ) is > 10 µM

Summary for this compound, CCCCCCO : IC50 is > 10 µM

Value of IC50 reported for the compound C=CC(O)CCCCC (stereo not drawn) is 11.6 µM

// field: IC50; key: CC1CCC(C(C)(C)O)C(O)C1 (stereo not drawn) ; value = 13.8 µM

Sure, the documented IC50 for O=C1CCCCC1 is > 10 µM

Entry CC12CCC(CC1)C(C)(C)O2 — recorded IC50 = > 10 µM

compound C=CC(C)(O)CCC=C(C)C (stereo not drawn) , IC50 observed: > 10 µM

So for CC1CCC(O)CC1 (stereo not drawn) , the logged IC50 turned out to be > 10 µM

IC50 reported for this compound Cc1ccc(O)cc1 : > 10 µM

Form: compound = CCCCN(CCC(=O)OCC)C(C)=O [IR3535, ethyl 3-[acetyl(butyl)amino]propanoate] ; IC50 = > 10 µM

Reported IC50 of CCCCCCCCC=O : 8.3 µM

IC50 recorded for this compound, Cc1c[nH]c2ccccc12 , is 14.4 µM

compound Cc1cc(C)cc(O)c1 , IC50 observed: > 10 µM

IC50 reading for CCN(CC)C(=O)c1cccc(C)c1 [DEET, N,N-diethyl-3-methylbenzamide] : > 10 µM

Short answer for COC(=O)c1ccccc1O [Methyl salicylate, methyl salicylate] : IC50 was > 10 µM

----------
Please provide measured Int (fluorescence emission) for the entries that follow.
Assayed target: CquiOBP2 (Culex quinquefasciatus, UniProt C7BDZ6)
Protocol summary: biochemical
Assay type: binding
Test context: CquiOBP2; residual NPN fluorescence, normalized to 100 prior to ligand; screen at 2–20 μM ligand
Answer as a number with no unit attached.

Value of Int (fluorescence emission) reported for the compound COc1ccccc1OC [1,2-Dimethoxybenzene, 1,2-dimethoxybenzene] is 91

Record C#CC(O)CCCCC (stereo not drawn) [1-Octyn-3-ol, 1-octyn-3-ol] , field Int (fluorescence emission): 92

Entry under test: CC(=O)CCC=C(C)C [Sulcatone, 6-methyl-5-hepten-2-one] . Its Int (fluorescence emission) was 84

----------
Assayed target: CquiOBP1 (Culex quinquefasciatus, UniProt Q8T6I2)
Sequence (Q8T6I2 entry or part of it): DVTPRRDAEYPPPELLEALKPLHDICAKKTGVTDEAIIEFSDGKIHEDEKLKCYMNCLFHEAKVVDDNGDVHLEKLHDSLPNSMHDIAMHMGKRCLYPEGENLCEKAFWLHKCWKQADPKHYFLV
Protocol summary: biochemical
Format: binding
Test context: CquiOBP1; residual NPN fluorescence, normalized to 100 prior to ligand; screen at 2–20 μM ligand
Endpoint name: Int (fluorescence emission)
Reply briefly: the number, and no unit.

Looking up C=CCc1ccc(O)c(OC)c1 [Eugenol, eugenol] , I see its Int (fluorescence emission) listed as 72

For this compound ( CCCCCC(O)CC (stereo not drawn) [3-Octanol, 3-octanol] ), measured Int (fluorescence emission) is 87

Entry CC(C)[C@]12CC(=O)[C@H](C)[C@H]1C2 [Thujone, thujone] , Int (fluorescence emission) reported as 96

Lab book: Int (fluorescence emission) of O=C1CCCCC1 [Cyclohexanone, cyclohexanone] noted as 79

The value of Int (fluorescence emission) measured for the compound C=CC1(C)CCC(C(C)(C)O)O1 (stereo not drawn) [Linalool oxide, linalool oxide] turned out to be 92

get_value(item= Cc1cc(C)cc(O)c1 [3,5-Dimethylphenol] , readout=Int (fluorescence emission)) returns 84

Int (fluorescence emission) in this record for Cc1ccc(O)cc1 [4-Methylphenol, 4-methylphenol] : 73

Form: compound = C=CC(O)CCCCC (stereo not drawn) [1-Octen-3-ol, 1-octen-3-ol] ; Int (fluorescence emission) = 69

// CC(=O)OC/C=C(\C)CCC=C(C)C [Geranyl acetate, geranyl acetate] : Int (fluorescence emission) value = 94

CC1CCC(O)CC1 (stereo not drawn) [4-Methylcyclohexanol] yielded Int (fluorescence emission) of 88

c1ccc2[nH]ccc2c1 [Indole, indole] has a reported Int (fluorescence emission) of 86

Measured Int (fluorescence emission), CCc1ccc(O)cc1 [4-Ethylphenol, 4-ethylphenol] : 85

Recorded Int (fluorescence emission) (compound CC/C=C\CCOC(C)=O [(Z)-3-Hexenyl acetate, (Z)-3-hexenyl acetate] ): 79

Reported Int (fluorescence emission) of O=Cc1ccccc1 [Benzaldehyde, benzaldehyde] : 83

get_value(item= C#CC(O)CCCCC (stereo not drawn) [1-Octyn-3-ol, 1-octyn-3-ol] , readout=Int (fluorescence emission)) returns 66
